target: T1, human MSLN-FL-his protein (human, UniProt Q13421 296-580); experiment: competitive ELISA; row Tab107 (conformation); further: test concentration or dose not given here
T1 construct: made in HEK293E cells, purified on nickel column; also called hMSLN-FL-his; human MSLN full-length protein; not shown: His tag
T1 sequence (Q13421 other isoform, or with tags, fused parts or gaps): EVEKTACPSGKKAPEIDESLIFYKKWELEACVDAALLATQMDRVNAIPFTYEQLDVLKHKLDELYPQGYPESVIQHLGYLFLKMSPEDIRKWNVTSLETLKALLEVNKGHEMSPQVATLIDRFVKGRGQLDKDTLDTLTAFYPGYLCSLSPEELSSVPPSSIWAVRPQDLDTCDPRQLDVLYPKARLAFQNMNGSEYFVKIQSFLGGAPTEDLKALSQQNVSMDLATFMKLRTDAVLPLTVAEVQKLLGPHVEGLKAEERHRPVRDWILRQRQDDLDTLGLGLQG

{"BINDER": "S009-F2.23.12 (antibody, human IgG1, kappa, V domains shown, human-murine chimeric antibody, human IgG1/kappa constant regions) VH: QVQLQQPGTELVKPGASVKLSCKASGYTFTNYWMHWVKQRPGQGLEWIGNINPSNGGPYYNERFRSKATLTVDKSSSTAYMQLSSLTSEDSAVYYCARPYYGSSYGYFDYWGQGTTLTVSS VL: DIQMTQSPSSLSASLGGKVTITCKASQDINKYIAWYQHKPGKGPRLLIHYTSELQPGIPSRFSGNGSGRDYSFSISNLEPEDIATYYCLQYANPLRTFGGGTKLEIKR", "competition rate / %": 3}
{"BINDER": "S009-F2.39.3 (antibody, human IgG1, kappa, V domains shown, human-murine chimeric antibody, human IgG1/kappa constant regions) VH: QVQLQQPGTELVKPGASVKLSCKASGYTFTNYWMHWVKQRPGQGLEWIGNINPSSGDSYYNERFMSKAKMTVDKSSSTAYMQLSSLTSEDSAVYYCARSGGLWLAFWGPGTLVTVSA VL: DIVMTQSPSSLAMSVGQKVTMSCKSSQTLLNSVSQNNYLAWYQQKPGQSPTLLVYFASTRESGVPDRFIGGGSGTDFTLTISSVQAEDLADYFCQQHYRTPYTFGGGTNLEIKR", "competition rate / %": 0}
{"BINDER": "S009-F2.16.10 (antibody, human IgG1, kappa, V domains shown, human-murine chimeric antibody, human IgG1/kappa constant regions) VH: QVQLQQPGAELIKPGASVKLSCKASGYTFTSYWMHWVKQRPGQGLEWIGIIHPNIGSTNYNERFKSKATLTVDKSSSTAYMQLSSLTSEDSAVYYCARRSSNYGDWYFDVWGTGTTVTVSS VL: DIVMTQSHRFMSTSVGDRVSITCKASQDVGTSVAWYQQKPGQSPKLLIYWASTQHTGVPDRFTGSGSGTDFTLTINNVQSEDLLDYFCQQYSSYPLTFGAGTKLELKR", "competition rate / %": -51}
{"BINDER": "S009-F2.47.1 (antibody, human IgG1, kappa, V domains shown, human-murine chimeric antibody, human IgG1/kappa constant regions) VH: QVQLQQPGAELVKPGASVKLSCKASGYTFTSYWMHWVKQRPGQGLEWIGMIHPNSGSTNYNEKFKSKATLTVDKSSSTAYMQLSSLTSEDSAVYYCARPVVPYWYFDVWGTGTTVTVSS VL: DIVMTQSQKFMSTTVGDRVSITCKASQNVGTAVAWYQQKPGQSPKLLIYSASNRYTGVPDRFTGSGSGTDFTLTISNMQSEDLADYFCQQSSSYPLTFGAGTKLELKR", "competition rate / %": -42}
